target: CAIX-expressing human HT-29 colorectal cancer cells (Homo sapiens); construct: CAIX-expressing human HT-29 colorectal cancer cells; host or cells: HT-29 human colorectal cancer cells; assay: FACS binding assay (IC50 determination, competition with tracer 3BP-2776 or 3BP-4149); settings: FACS competition on HT-29 cells, Tracer ID 3BP-2776 (10 nM, biotin-labeled), 4° C., 1 hour; read-out: pIC50 category (activity) (converted)
Starred links: 1 amine or outer side, 2 acyl side, 3 side chain; linkers in the order of their positions; H or OH if unused. Positions of bridges follow the written chain, without caps; N, C: chain ends. Non-standard residues stand in square brackets, D forms with d. Residues, ends and D or L forms follow the SMILES beside them. *: point of attachment. mXylylene = c1cc(C[*:1])cc(C[*:2])c1; Tic = O=C(O)[C@@H]1Cc2ccccc2CN1; Propanoyl(3-OH) = O=C(CCO)*
MEASUREMENT KIND: IC50

{"COMPOUND": "CC(=O)N[C@H](C(=O)N1Cc2ccccc2C[C@H]1C(=O)N[C@H]1CSCc2cccc(c2)CSC[C@@H](C(N)=O)NC(=O)[C@H](CO)NC(=O)[C@H](Cc2c[nH]c3ccccc23)NC(=O)[C@H]([C@@H](C)O)NC(=O)[C@H](CC(C)C)NC(=O)[C@H](Cc2c[nH]c3ccccc23)NC(=O)[C@H](CC(=O)O)NC(=O)[C@H]2CCCN2C(=O)[C@H](CCC(=O)O)NC1=O)C(C)C [3BP-3572] (Ac-V[Tic]CE[dP]DWLTWSC-NH2; linker 3-12 via mXylylene)", "SUBJECT OF TEST": "CAIX-expressing human HT-29 colorectal cancer cells (Homo sapiens)", "OBSERVED VALUE": "10 to 79.4 nM"}

We next turn to a different compound, shown below.
Q. Provide the documented IC50 with CAIX-expressing human HT-29 colorectal cancer cells (Homo sapiens) as the system for CC(C)C[C@@H]1NC(=O)[C@H](Cc2c[nH]c3ccccc23)NC(=O)[C@H](CC(=O)O)NC(=O)[C@H]2CCCN2C(=O)[C@H](CCC(=O)O)NC(=O)[C@@H](NC(=O)[C@H](Cc2ccc(O)cc2)NC(=O)CCO)CSCc2cccc(c2)CSC[C@@H](C(N)=O)NC(=O)[C@H](CO)NC(=O)[C@H](Cc2c[nH]c3ccccc23)NC(=O)[C@H]([C@@H](C)O)NC1=O [3BP-3730] ({Propanoyl(3-OH)}-YCE[dP]DWLTWSC-NH2; linker 2-11 via mXylylene)
A. < 10 nM
